All figures here come from paper PMC11637378.

Reported Offscreen_42hr, parent strain (SAWy518).
Where a name gives a salt, the structure may show the parent alone.
Answer with the value's number alone.

Problem: Report Offscreen_42hr on parent strain (SAWy518) for this entry: CC(=O)[C@]1(O)Cc2c(O)c3c(c(O)c2[C@@H](O[C@H]2C[C@H](N)[C@H](O)[C@H](C)O2)C1)C(=O)c1ccccc1C3=O [Idarubicin HCl]
Result: 0.402

Problem: Specify the recorded Offscreen_42hr for Cc1ccc(S(=O)(=O)/C=C/C#N)cc1 [Bay 11-7082] , system: parent strain (SAWy518).
Result: 0.896

Problem: State recorded Offscreen_42hr with parent strain (SAWy518), entry CCC(C)n1ncn(-c2ccc(N3CCN(c4ccc(OCC5COC(Cn6cncn6)(c6ccc(Cl)cc6Cl)O5)cc4)CC3)cc2)c1=O (stereo not shown) [Itraconazole] , no comment.
Result: 0.8998

Problem: Give Offscreen_42hr for this entry on parent strain (SAWy518): CC1(C)O[C@@H]2C[C@H]3[C@@H]4C[C@H](F)C5=CC(=O)C=C[C@]5(C)[C@H]4[C@@H](O)C[C@]3(C)[C@]2(C(=O)CO)O1 [Flunisolide]
Result: 0.9469

Problem: Tell me Offscreen_42hr of Nc1c2ccccc2nc2ccccc12 [AMINACRINE] when tested on parent strain (SAWy518).
Result: 0.7904

Problem: Name the recorded Offscreen_42hr of Cc1ccccc1-c1cc(N2CCN(C)CC2)ncc1N(C)C(=O)C(C)(C)c1cc(C(F)(F)F)cc(C(F)(F)F)c1 [Netupitant] , assay system parent strain (SAWy518).
Result: 0.9839

Problem: Lab note: record Offscreen_42hr of Oc1ccc2ccccc2c1SSc1c(O)ccc2ccccc12 [IPA-3] tested on parent strain (SAWy518).
Result: 0.1263
